Measured values drawn from ChEMBL document CHEMBL1150491 for this set.

- Measurement notes: Area under curve was evaluated against Cynomolgus monkey at a dose of 15 mg/kg after po administration
- Assay type: ADME, organism-based
- Parameters: dose 15 mg/kg, route oral
- Details: cercopithecidae, in vivo
Endpoint name: AUC (ng·h/mL)
Enter your answer as a number in ng·h/mL; do not include the unit.

In: Give a short answer stating reported AUC for CS(=O)(=O)c1ccc(-c2cc(Br)sc2-c2ccc(F)cc2)cc1 [DUP-697] .
Out: 56000

* * *

- Experimental target: Prostaglandin G/H synthase 1 (Ovis aries)
- Sequence (P05979 whole entry): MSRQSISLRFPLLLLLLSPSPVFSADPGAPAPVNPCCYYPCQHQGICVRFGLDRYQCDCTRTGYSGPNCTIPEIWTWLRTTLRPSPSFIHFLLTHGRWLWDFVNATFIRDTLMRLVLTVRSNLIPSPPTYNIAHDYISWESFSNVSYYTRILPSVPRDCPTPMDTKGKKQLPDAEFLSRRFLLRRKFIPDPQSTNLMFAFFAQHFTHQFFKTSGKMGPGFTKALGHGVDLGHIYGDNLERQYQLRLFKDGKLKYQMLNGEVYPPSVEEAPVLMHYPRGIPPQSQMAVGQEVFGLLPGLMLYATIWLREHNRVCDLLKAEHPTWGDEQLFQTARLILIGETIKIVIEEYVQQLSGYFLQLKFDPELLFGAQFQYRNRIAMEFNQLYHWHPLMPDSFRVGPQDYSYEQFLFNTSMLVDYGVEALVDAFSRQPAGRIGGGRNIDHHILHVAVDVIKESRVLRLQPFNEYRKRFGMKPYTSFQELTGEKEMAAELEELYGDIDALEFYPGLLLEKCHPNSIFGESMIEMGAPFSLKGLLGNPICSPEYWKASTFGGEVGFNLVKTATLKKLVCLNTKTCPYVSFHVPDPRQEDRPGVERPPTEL
Endpoint name: IC50

Mol smiles | Endpoint name | Measured value
CS(=O)(=O)c1ccc(-c2c(-c3ccccc3)sc3c2CCCC3)cc1 | IC50 | > 1000 µM
CS(=O)(=O)c1ccc(-c2cc(N)sc2-c2ccc(F)cc2)cc1 | IC50 | 6 µM
CCOC(=O)/C=C/c1cc(-c2ccc(S(C)(=O)=O)cc2)c(-c2ccc(F)cc2)s1 | IC50 | 100 µM

In: State the measured IC50 (Prostaglandin G/H synthase 1 (Ovis aries)) of Cc1cc(-c2ccc(S(C)(=O)=O)cc2)c(-c2ccc(F)cc2)s1
Out: 80 µM

In: Give IC50 for CS(=O)(=O)c1ccc(-c2cc(S(C)(=O)=O)sc2-c2ccc(F)cc2)cc1 tested on Prostaglandin G/H synthase 1 (Ovis aries).
Out: > 300 µM

In: Tell me IC50 of CS(=O)(=O)c1ccc(-c2cscc2-c2ccccc2)cc1 when tested on Prostaglandin G/H synthase 1 (Ovis aries).
Out: > 1000 µM

In: State measured IC50 of the compound COc1ccc(-c2sccc2-c2ccc(S(C)(=O)=O)cc2)cc1 with Prostaglandin G/H synthase 1 (Ovis aries).
Out: 48 µM

In: State IC50 (Prostaglandin G/H synthase 1 (Ovis aries)) of Cc1ccc(-c2cscc2-c2ccc(S(C)(=O)=O)cc2)cc1 .
Out: 438 µM

In: Enter IC50 (test system Prostaglandin G/H synthase 1 (Ovis aries)) for CCOC(=O)CCc1cc(-c2ccc(S(C)(=O)=O)cc2)c(-c2ccc(F)cc2)s1
Out: 200 µM

In: GET IC50 | system: Prostaglandin G/H synthase 1 (Ovis aries) | item: CS(=O)(=O)c1ccc(-c2ccsc2-c2ccc(F)cc2)cc1
Out: 490 µM

In: Check Prostaglandin G/H synthase 1 (Ovis aries) data and give IC50 for CS(=O)(=O)c1ccc(-c2cscc2-c2ccc(S(C)(=O)=O)cc2)cc1 .
Out: > 300 µM
